# Assay Protocol: Calcium (Ca^2+) binding assay: fluorescence/absorbance titration of purified protein
# Condition: absorbance at 569
Assay Metric: Aholo/Aapo

| Molecule | Assay Metric | Measured Value |
| --- | --- | --- |
| mApple: red fluorescent scaffold protein, SEQ ID NO: 11 (protein) EENNMAIIKEFMRFKVHMEGSVNGHEFEIEGEGEGRPYEAFQTAKLKVTKGGPLPFAWDILSPQFMYGSKVYIKHPADIPDYFKLSFPEGFRWERVMNFEDGGIIHVNQDSSLQDGVFIYKVKLRGTNFPSDGPVMQKKTMGWEASEERMYPEDGALKSEIKKRLKLKDGGHYAAEVKTTYKAKKPVQLPGAYIVDIKLDIVSHNEDYTIVEQYERAEGRHSTGGMDELYK | Aholo/Aapo | 1.07 (569) |
| mApple K198D/R216D: mApple variant, SEQ ID NO: 24 (protein) EENNMAIIKEFMRFKVHMEGSVNGHEFEIEGEGEGRPYEAFQTAKLKVTKGGPLPFAWDILSPQFMYGSKVYIKHPADIPDYFKLSFPEGFRWERVMNFEDGGIIHVNQDSSLQDGVFIYKVKLRGTNFPSDGPVMQKKTMGWEASEERMYPEDGALKSEIKKRLKLKDGGHYAAEVKTTYKAKKPVQLPGAYIVDIDLDIVSHNEDYTIVEQYEDAEGRHSTGGMDELYK | Aholo/Aapo | 2.21 (569) |
